- System: bacteria of sputum from patients with lung diseases
- Test Name: Standard antibiotic susceptibility study using the microbroth dilution method (Algorithm #3); also: key: '+'—presence of bacterial growth, antibiotic ineffective; '−'—absence of bacterial growth, antibiotic effective
- Assay type: cell-based
Measure: ATB efficacy

{"Compound": "NCC[C@H](O)C(=O)N[C@@H]1C[C@H](N)[C@@H](O[C@H]2O[C@H](CN)[C@@H](O)[C@H](O)[C@H]2O)[C@H](O)[C@H]1O[C@H]1O[C@H](CO)[C@@H](O)[C@H](N)[C@H]1O [Amikacin]", "Observed": "−"}
{"Compound": "CC(C)(O/N=C(\\C(=O)N[C@@H]1C(=O)N2C(C(=O)[O-])=C(C[n+]3ccccc3)CS[C@H]12)c1csc(N)n1)C(=O)O [Ceftazidime]", "Observed": "+"}
{"Compound": "CO/N=C(\\C(=O)N[C@@H]1C(=O)N2C(C(=O)[O-])=C(C[N+]3(C)CCCC3)CS[C@H]12)c1csc(N)n1 [Cefepime]", "Observed": "+"}
{"Compound": "CN[C@H](CC(C)C)C(=O)N[C@H]1C(=O)N[C@@H](CC(N)=O)C(=O)N[C@H]2C(=O)N[C@H]3C(=O)N[C@H](C(=O)N[C@H](C(=O)O)c4cc(O)cc(O)c4-c4cc3ccc4O)[C@H](O)c3ccc(c(Cl)c3)Oc3cc2cc(c3O[C@@H]2O[C@H](CO)[C@@H](O)[C@H](O)[C@H]2O[C@H]2C[C@](C)(N)[C@H](O)[C@H](C)O2)Oc2ccc(cc2Cl)[C@H]1O [Vancomycin]", "Observed": "−"}
